Where do the numbers come from? From the supplement of paper PMC7125110.

B1: glmS ribozyme (parent)
chain: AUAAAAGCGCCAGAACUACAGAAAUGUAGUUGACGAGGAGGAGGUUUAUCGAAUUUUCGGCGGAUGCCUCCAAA

# Variants of: B1
# assaySummary: self-cleavage kobs at 2500 uM GlcN6P; higher = faster cleavage; RNA array
# assayContext: with glucosamine-6-phosphate
Fewer inactive variants are shown than the library holds.
Let's look at some variants and their measured self-cleavage kobs at 2500 uM GlcN6P.
quantity: self-cleavage kobs at 2500 uM GlcN6P (s⁻¹)

> print(dat)
                  mutantname  qualifieroperator   reading
 1                 U45G U57C                  =  3.94e-05
 2                  C8G U46C                  <     1e-05
 3                 A39G U65C                  =   0.00163
 4                 G29A G63C                  <     1e-05
 5            A39U G40U C67A                  =  0.000561
 6                 U47G C68A                  =  9.07e-05
 7                 G13A C16G                  =  0.000131
 8                 G35U G63U                  <     1e-05
 9                 C10U U69G                  =  3.24e-05
10  C34U G43U G59A G62C C67A                  <     1e-05
11       A14C U30G A36U A53G                  <     1e-05
